- Substrate: vinyl butyrate
- REPORTED_CONDITIONS: pH 7; 25 °C
MEASUREMENT_NAME: kcat (s⁻¹)
Number only, in s⁻¹; omit the unit.

Name the recorded kcat for unnamed (protein) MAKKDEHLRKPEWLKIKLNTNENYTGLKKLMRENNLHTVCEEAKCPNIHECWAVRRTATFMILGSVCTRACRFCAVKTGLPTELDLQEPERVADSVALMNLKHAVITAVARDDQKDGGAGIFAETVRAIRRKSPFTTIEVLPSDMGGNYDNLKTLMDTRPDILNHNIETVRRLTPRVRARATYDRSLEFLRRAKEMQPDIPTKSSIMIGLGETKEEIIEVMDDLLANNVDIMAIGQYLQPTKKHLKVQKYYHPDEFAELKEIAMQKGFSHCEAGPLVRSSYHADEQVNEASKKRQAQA . 635

Value source: the PETadex activity labels (doi:10.1016/j.bbalip.2005.11.003)
